Values compiled from patent US10082506B2.

molecular target: hIntL-1 (Homo sapiens, UniProt Q8WWA0); experiment: hIntL-1 carbohydrate binding ELISA-like assay (immobilized biotinylated carbohydrates); set-up: made in house; host or cells: HEK 293T (transient transfection, suspension); conditions: disulfide-linked trimer, immobilized biotinylated carbohydrate; read-out: apparent avidity (apparent Kd) of trimeric hIntL-1 for immobilized ligand
Sequence (Q8WWA0 19-313): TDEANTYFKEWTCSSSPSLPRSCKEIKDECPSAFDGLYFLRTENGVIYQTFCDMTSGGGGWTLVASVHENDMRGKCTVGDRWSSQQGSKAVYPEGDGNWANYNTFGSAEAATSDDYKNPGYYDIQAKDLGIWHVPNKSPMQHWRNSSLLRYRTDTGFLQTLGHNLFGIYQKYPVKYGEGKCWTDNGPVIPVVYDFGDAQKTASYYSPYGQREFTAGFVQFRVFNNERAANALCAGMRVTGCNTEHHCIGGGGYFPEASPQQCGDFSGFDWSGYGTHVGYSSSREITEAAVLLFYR
pKd: −log10 of the molar value.
experimental-endpoint: pKd

> print(dat)
                                   compound  reported.measurement
1  O=C(CCCCC1SCC2NC(=O)NC21)NCCOCCOCCOCCOCc1cn(CCCCCCCCCC=CCOC2OC(C(O)CO)C(O)C2O)nn1 (stereo not shown)                  7.07
